Biological target: T1, recombinant biotinylated human PAR2 extracellular domain (residues 1-75), N-terminal AviTag, C-terminal Flag … (human, UniProt P55085 26-75, biotin on the AviTag (enzymatic biotinylation))
T1 construct: also called Bio-human-PAR2 ECD; human PAR2 ECD; not shown: N-terminal AviTag (Avidity LLC); C-terminal Flag and poly Histidine tags
T1 sequence (P55085 26-75): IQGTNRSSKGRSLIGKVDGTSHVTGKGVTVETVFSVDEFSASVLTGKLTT
Test: Biacore SPR 25 C, pH 7.4
ASSAY_METRIC: koff

Worked cases, answers included:
>>> data_value("PaB670120 Fab (Fab, V domains shown, Fab; also called ZZ1RUC-C11) VH: EVQLLESGGGLVQPGGSLRLSCAASGFTFSSYAMNWVRQAPGKGLEWVSTISYHGHHISYADSHHHRFTISRDNSKNTLYLQMNSLRAEDTAVYYCARINHDPMDVWGQGTLVTVSS VL: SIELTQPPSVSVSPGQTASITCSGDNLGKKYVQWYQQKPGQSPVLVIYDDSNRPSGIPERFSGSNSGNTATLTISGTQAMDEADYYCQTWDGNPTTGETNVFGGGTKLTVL")
"0.00137 s⁻¹"
>>> data_value("Par0067 Fab (Fab, V domains shown, Fab; also called ZZ15D2-D02) VH: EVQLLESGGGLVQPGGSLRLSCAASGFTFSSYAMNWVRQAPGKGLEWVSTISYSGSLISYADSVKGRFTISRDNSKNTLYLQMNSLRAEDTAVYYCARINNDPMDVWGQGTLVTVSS VL: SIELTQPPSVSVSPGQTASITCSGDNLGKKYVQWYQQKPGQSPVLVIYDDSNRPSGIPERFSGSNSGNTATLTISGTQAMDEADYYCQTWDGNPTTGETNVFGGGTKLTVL")
"4.96e-05 s⁻¹"

// switching to the query binder
koff reading for PaB670129 Fab (Fab, V domains shown, Fab; also called ZZ1RUE-F02) VH: EVQLLESGGGLVQPGGSLRLSCAASGFTFSSYAMNWVRQAPGKGLEWVSTISYHGSHISYHDSVHHRFTISRDNSKNTLYLQMNSLRAEDTAVYYCARIHHDPMDVWGQGTLVTVSS VL: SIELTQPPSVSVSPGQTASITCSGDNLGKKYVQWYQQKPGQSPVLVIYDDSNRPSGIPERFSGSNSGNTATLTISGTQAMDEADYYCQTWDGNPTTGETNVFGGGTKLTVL : 0.00504 s⁻¹
